- Test system: M21 human melanoma cells
- EXPERIMENTAL DETAILS: M21 melanoma cell adhesion assay (αvβ3-dependent adhesion to human fibrinogen-coated plates)
- Type: cell-based
- MEASUREMENT SETUP: Homo sapiens, M21; read-out: M21 Melanoma Cells IC50
pIC50: −log10 of the molar value. Structures can show the parent of a compound that is named as a salt.
RECORDED ENDPOINT: pIC50

1) NC(=S)Nc1cccc(C(=O)NCC(=O)NC(CC(=O)O)c2cccnc2)c1 (stereo not shown) [Example 114, trifluoroacetate salt]; 6.70
2) Cc1ccc(SCCC(CC(=O)O)NC(=O)CNC(=O)c2cccc(NC(=N)N)c2)cc1 (racemic) [Example 66, trifluoroacetate salt]; 8.60
3) O=C(O)CC(NC(=O)CNC(=O)c1cccc(NC2=NCCC2)c1)c1cccnc1 (stereo not shown) [Example 17]; 8.44
4) N=C(N)Nc1cccc(C(=O)NCC(=O)NC(CC(=O)O)c2ccsc2)c1 (racemic) [Example 59, trifluoroacetate salt]; 7.61

---

- TEST SYSTEM: Human fibrinogen receptor (αIIbβ3) (Homo sapiens, UniProt P05106+P08514)
- Construct: Human fibrinogen receptor (αIIbβ3) was purified from outdated platelets; from tissue; host or cells: outdated human platelets
- Sequence (P08514 32-887 limits assumed): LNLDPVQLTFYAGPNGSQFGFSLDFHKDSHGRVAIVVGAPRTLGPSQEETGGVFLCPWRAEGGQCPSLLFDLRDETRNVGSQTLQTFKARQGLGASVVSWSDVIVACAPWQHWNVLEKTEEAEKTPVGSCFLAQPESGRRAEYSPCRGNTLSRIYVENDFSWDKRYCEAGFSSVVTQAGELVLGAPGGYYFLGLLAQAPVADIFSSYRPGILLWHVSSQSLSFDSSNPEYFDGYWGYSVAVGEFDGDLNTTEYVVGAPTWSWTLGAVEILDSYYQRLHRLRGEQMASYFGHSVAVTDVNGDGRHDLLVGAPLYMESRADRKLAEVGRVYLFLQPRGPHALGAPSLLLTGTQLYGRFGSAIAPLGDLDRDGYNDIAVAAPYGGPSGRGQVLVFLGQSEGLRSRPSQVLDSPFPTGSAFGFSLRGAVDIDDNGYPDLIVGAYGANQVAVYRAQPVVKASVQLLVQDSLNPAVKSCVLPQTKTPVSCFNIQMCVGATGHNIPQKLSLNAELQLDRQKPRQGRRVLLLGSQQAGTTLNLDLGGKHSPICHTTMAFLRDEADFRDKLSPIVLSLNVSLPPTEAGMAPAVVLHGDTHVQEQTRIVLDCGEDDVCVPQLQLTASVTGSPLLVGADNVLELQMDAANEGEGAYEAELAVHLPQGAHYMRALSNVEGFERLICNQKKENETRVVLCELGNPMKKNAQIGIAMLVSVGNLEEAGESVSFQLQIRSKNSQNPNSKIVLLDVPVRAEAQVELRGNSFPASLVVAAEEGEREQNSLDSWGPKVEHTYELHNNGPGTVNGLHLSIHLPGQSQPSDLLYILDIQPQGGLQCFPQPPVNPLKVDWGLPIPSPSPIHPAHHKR
- Sequence (P08514 891-1039 limits assumed): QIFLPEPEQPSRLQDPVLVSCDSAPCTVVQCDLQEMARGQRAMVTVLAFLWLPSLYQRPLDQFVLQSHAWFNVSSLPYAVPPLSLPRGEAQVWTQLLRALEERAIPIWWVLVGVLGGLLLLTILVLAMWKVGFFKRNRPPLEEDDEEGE
- Sequence (P05106 27-788): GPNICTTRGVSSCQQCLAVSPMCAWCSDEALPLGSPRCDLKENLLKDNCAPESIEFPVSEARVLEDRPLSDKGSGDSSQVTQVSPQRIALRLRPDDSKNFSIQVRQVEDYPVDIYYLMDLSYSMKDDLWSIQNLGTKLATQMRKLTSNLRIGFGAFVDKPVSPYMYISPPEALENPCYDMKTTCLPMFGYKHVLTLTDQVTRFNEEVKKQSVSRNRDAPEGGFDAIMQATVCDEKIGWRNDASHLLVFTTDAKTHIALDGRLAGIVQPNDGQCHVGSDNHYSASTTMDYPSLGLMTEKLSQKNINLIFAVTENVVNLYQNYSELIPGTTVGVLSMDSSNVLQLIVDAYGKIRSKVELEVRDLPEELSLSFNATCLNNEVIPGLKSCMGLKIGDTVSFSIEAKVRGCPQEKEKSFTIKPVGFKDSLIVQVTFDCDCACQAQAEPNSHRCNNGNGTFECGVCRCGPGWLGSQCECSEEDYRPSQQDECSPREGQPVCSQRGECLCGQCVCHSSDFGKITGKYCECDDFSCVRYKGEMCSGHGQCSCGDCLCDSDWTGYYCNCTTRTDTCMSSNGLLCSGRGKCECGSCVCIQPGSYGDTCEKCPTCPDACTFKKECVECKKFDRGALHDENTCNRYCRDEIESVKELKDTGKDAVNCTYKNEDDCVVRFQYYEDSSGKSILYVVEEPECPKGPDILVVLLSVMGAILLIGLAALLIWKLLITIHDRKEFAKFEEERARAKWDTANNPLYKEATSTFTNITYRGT
- EXPERIMENTAL DETAILS: Purified IIb/IIIa receptor assay (solid phase receptor assay, competition with biotinylated vitronectin)
- Format: binding
- MEASUREMENT SETUP: read-out: IIb/IIIa IC50
pIC50: −log10 of the molar value. Counter-ions that a name gives are not always drawn.
RECORDED ENDPOINT: pIC50

1. N=C(N)Nc1cccc(C(=O)NCC(=O)NC(CC(=O)O)c2cccc(Cl)c2)c1 (racemic) [Example 183, trifluoroacetate salt]; 6.59
2. O=C(O)CC(NC(=O)CNC(=O)c1cccc(NC2=NCCN2)c1)c1cccnc1 (racemic); 7.26
3. CC(NC(=O)Nc1cccc(C(=O)NCC(=O)NC(CC(=O)O)c2cccnc2)c1)c1ccccc1 (centres unmarked) [Example 271, trifluoroacetate salt]; 5.34
4. O=C(O)CC(NC(=O)CNC(=O)c1cccc(NC2=NCCS2)c1)c1cccnc1 (centres unmarked) [Example 101, trifluoroacetate salt]; 4.18
5. N=C(N)Nc1cccc(C(=O)NCC(=O)NC(CC(=O)O)c2cc(F)cc(Br)c2)c1 (racemic) [Example 209, trifluoroacetate salt]; 6.85
6. N=C(N)Nc1cccc(C(=O)NCC(=O)NC(CCSc2ccccc2C(=O)O)CC(=O)O)c1 (racemic) [60(B), trifluoroacetate salt]; 7.14
7. N=C(N)Nc1cccc(C(=O)NCC(=O)NC(CC(=O)O)CC(=O)Nc2cc(Cl)cc(Cl)c2)c1 (centres unmarked) [Example 288, trifluoroacetate salt]; 5.97
8. O=C(O)CC(NC(=O)CNC(=O)c1cccc(NC(=O)NCc2ccccc2)c1)c1cc(Cl)cc(Cl)c1 (centres unmarked) [Example 269, monohydrate]; 4.60
9. O=C(O)CC(NC(=O)CNC(=O)c1cccc(NC2=NCCCS2)c1)c1cccnc1 (centres unmarked); 6.82
10. N=C(N)Nc1cccc(C(=O)NCC(=O)NC(CC(=O)O)c2cc(F)cc(C(F)(F)F)c2)c1 (racemic) [Example 208, trifluoroacetate salt]; 6.56
11. N#C/N=C(/NCc1ccccn1)Nc1cccc(C(=O)NCC(=O)NC(CC(=O)O)c2ccccc2)c1 (centres unmarked); 5.23
12. N=C(N)Nc1cccc(C(=O)NCC(=O)NC(CC(=O)O)c2ccc(Br)cc2)c1 (racemic) [Example 187, trifluoroacetate salt]; 6.58
13. CCOC(=O)CC(NC(=O)CNC(=O)c1cccc(NC(=N)N)c1)c1ccccc1 (racemic) [Example 3, trifluoroacetate salt]; 4.14

Reference source for all entries: patent US6831199B1
